Entries annotated with measured rate of dead pests (%)
test system: Spodoptera litura; assay: Insecticidal effect for Spodoptera litura by spraying treatment to host crop (Test Example 2); type: in vivo; settings: 100 ppm; sprayed on soybean; third-instar larvae of Spodoptera litura; fifth day after
The reply must contain the numeric value and, after it, the unit.

For the molecule shown here, `C#CCSc1ccc(N2COCN(C(=O)c3c(F)cccc3F)C2=O)c(F)c1` , give the reported rate of dead pests (%).
100%

Okay, and `O=C(c1c(F)cccc1F)N1CN(C2CC2)CN(c2ccc(Oc3ccc(C(F)(F)F)cc3Cl)cc2F)C1=O` ?
100%

One more molecule: C#CCN1CN(C(=O)c2c(F)cccc2F)C(=O)N(c2ccc([S+]([O-])C(F)(F)C(F)Cl)cc2F)C1 (centres unmarked)
100%

What about this molecule? `CSc1ccc(N2COCN(C(=O)c3c(F)cccc3Cl)C2=O)c(F)c1`
100%

And `Cc1cc(SC(F)(F)C(F)(F)C(F)(F)F)c(Cl)cc1N1COCN(C(=O)c2c(F)cccc2Cl)C1=O` ?
100%

Next:
Request the reported rate of dead pests (%) associated with O=C(c1c(F)cccc1F)N1C[S+]([O-])CN(c2cc(Cl)c(F)c(Cl)c2F)C1=O (centres unmarked)
100%

Here is the next molecule: `Cc1cc(SC(F)(F)F)ccc1N1COCN(C(=O)c2c(F)cccc2F)C1=O`
100%

For `Cc1c(SC(F)(F)F)ccc(N2COCN(C(=O)c3c(F)cccc3F)C2=O)c1C` then?
100%

Another molecule to check: O=C(c1c(F)cccc1F)N1COCN(c2ccc([S+]([O-])C(F)(F)C(F)Cl)cc2F)C1=O (centres unmarked)
100%

// same read-out, input: `O=C(CBr)N1CN(C(=O)c2c(F)cccc2F)C(=O)N(c2ccc(Oc3ccc(C(F)(F)F)cc3Cl)cc2F)C1`
100%

What do you have for O=C(c1c(F)cccc1Cl)N1COCN(c2ccc([S+]([O-])C(F)(F)C(F)(F)F)cc2F)C1=O (centres unmarked) ?
100%

Now the same for CC(=O)N1CN(C(=O)c2c(F)cccc2F)C(=O)N(c2ccc([S+]([O-])C(F)F)cc2F)C1 (centres unmarked)
100%

Note, next up: O=C(c1c(F)cccc1F)N1COCN(c2ccc([S+]([O-])C(F)(F)F)c(F)c2)C1=O (centres unmarked)
100%

Also `Cc1ccc(S(=O)(=O)N2CN(C(=O)c3c(F)cccc3F)C(=O)N(c3cc(Cl)c(F)c(Cl)c3F)C2)cc1` ?
100%

Again, but for `COC(=O)N1CN(C(=O)c2c(F)cccc2F)C(=O)N(c2ccc(Cl)cc2)C1`
100%

Lookup `CS(=O)(=O)N1CN(C(=O)c2c(F)cccc2F)C(=O)N(c2ccc(Oc3ccc(C(F)(F)F)cc3Cl)cc2F)C1`
100%

Same question for `Cc1cc(N2COCN(C(=O)c3c(F)cccc3Cl)C2=O)ccc1SC(F)(F)F` please.
100%
